# System: S. aureus Newman
# protocol_text: Bliss interaction score (quartile over a dose matrix) (fitness difference); higher = more antagonism (negative = synergy);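 further: first quartile when negative (synergy) and third quartile when positive (antagonism)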
Note to self: values exactly at -0.02 are YES. So Bliss interaction score at or above -0.02 is YES, below is NO.

Item CN(C)[C@@H]1C(O)=C(C(N)=O)C(=O)[C@@]2(O)C(O)=C3C(=O)c4c(O)ccc(Cl)c4[C@@](C)(O)[C@H]3C[C@@H]12 [Clortetracycline] + CC1(C)S[C@@H]2[C@H](NC(=O)Cc3ccccc3)C(=O)N2[C@H]1C(=O)O [PenicillinG] with Bliss interaction score of -0.02 or above?
NO

Now the compound O=C(O)c1cn(C2CC2)c2cc(N3CCNCC3)c(F)cc2c1=O [Ciprofloxacin] + COc1cc(Cc2cnc(N)nc2N)cc(OC)c1OC [Trimethoprim]
NO

And for C[C@H]1c2cccc(O)c2C(=O)C2=C(O)[C@]3(O)C(=O)C(C(N)=O)=C(O)[C@@H](N(C)C)[C@@H]3[C@@H](O)[C@@H]21 [Doxycycline] + CC[C@H]1OC(=O)[C@H](C)C(=O)[C@H](C)[C@@H](O[C@@H]2O[C@H](C)C[C@H](N(C)C)[C@H]2O)[C@](C)(OC)C[C@@H](C)C(=O)[C@H](C)[C@H]2N(CCCCn3cnc(-c4cccnc4)c3)C(=O)O[C@]12C [Telithromycin] ?
NO

Now consider CO/N=C(\C(=O)N[C@@H]1C(=O)N2C(C(=O)O)=C(COC(N)=O)CS[C@H]12)c1ccco1 [Cefuroxime] + CN(C)[C@@H]1C(O)=C(C(N)=O)C(=O)[C@@]2(O)C(O)=C3C(=O)c4c(O)ccc(Cl)c4[C@@](C)(O)[C@H]3C[C@@H]12 [Clortetracycline] and answer again.
NO

Input O=C(O)c1cn(C2CC2)c2cc(N3CCNCC3)c(F)cc2c1=O [Ciprofloxacin] + C[C@@H]1O[C@@H]1P(=O)(O)O [Fosfomycin]
YES

Try this compound too: CO/N=C(\C(=O)N[C@@H]1C(=O)N2C(C(=O)O)=C(COC(N)=O)CS[C@H]12)c1ccco1 [Cefuroxime] + O=C(O[C@@H]1Cc2c(O)cc(O)cc2O[C@@H]1c1cc(O)c(O)c(O)c1)c1cc(O)c(O)c(O)c1 [EGCG]
YES

Note, next up: Cc1ncc([N+](=O)[O-])n1CCO [Metronidazole] + CO[C@@]12[C@H](COC(N)=O)C3=C(C(=O)C(C)=C(N)C3=O)N1C[C@@H]1N[C@@H]12 [MitomycinC]
YES

# repeat for O=C(O)c1cn(C2CC2)c2cc(N3CCNCC3)c(F)cc2c1=O [Ciprofloxacin] + COc1ccc(C[C@H](N)C(=O)N[C@H]2[C@@H](O)[C@H](n3cnc4c(N(C)C)ncnc43)O[C@@H]2CO)cc1 [Puromycin]
NO

Moving on to CO/N=C(\C(=O)N[C@@H]1C(=O)N2C(C(=O)O)=C(COC(C)=O)CS[C@H]12)c1csc(N)n1 [Cefotaxime] + CO[C@H]1/C=C/O[C@@]2(C)Oc3c(C)c(O)c4c(O)c(c(/C=N/N5CCN(C)CC5)c(O)c4c3C2=O)NC(=O)/C(C)=C\C=C\[C@H](C)[C@H](O)[C@@H](C)[C@@H](O)[C@@H](C)[C@H](OC(C)=O)[C@@H]1C [Rifampicin]
YES

----------
I'd be grateful if you could share measured Bliss interaction score for these entries.
# System: B. subtilis 168
# protocol_text: Bliss interaction score (quartile over a dose matrix) (fitness difference); higher = more antagonism (negative = synergy)
The reply should be a number, written without any unit.

# get_value(readout='Bliss interaction score', item= CC1(C)S[C@@H]2[C@H](NC(=O)Cc3ccccc3)C(=O)N2[C@H]1C(=O)O [PenicillinG] + Cc1cc(NS(=O)(=O)c2ccc(N)cc2)no1 [Sulfamethoxazol] )
0.0445

Check COc1cccc2c1C(=O)c1c(O)c3c(c(O)c1C2=O)C[C@@](O)(C(=O)CO)C[C@@H]3O[C@H]1C[C@H](N)[C@H](O)[C@H](C)O1 [Doxorubicin] + CN[C@H](CC(C)C)C(=O)N[C@H]1C(=O)N[C@@H](CC(N)=O)C(=O)N[C@H]2C(=O)N[C@H]3C(=O)N[C@H](C(=O)N[C@H](C(=O)O)c4cc(O)cc(O)c4-c4cc3ccc4O)[C@H](O)c3ccc(c(Cl)c3)Oc3cc2cc(c3O[C@@H]2O[C@H](CO)[C@@H](O)[C@H](O)[C@H]2O[C@H]2C[C@](C)(N)[C@H](O)[C@H](C)O2)Oc2ccc(cc2Cl)[C@H]1O [Vancomycin] too.
-0.0982

For CC(=O)Oc1ccccc1C(=O)O [Acetylsalicylicacid] + O=C(O[C@@H]1Cc2c(O)cc(O)cc2O[C@@H]1c1cc(O)c(O)c(O)c1)c1cc(O)c(O)c(O)c1 [EGCG] then?
0.141

Cool, now Cc1ncc([N+](=O)[O-])n1CCO [Metronidazole] + CC1(C)S[C@@H]2[C@H](NC(=O)Cc3ccccc3)C(=O)N2[C@H]1C(=O)O [PenicillinG]
0.0322

What do we get for N#CC(C#N)=NNc1cccc(Cl)c1 [CCCP] + CCN(CC)CCOC(=O)c1ccc(N)cc1 [Procaine] ?
0.0328

One more compound: C[C@@H]1O[C@@H]1P(=O)(O)O [Fosfomycin] + Cn1nnc(-c2ccc(-c3ccc(N4C[C@H](CO)OC4=O)cc3F)cn2)n1 [Tedizolid]
0.0967

What about CO/N=C(\C(=O)N[C@@H]1C(=O)N2C(C(=O)O)=C(COC(C)=O)CS[C@H]12)c1csc(N)n1 [Cefotaxime] + CC[C@H]1OC(=O)[C@H](C)C(=O)[C@H](C)[C@@H](O[C@@H]2O[C@H](C)C[C@H](N(C)C)[C@H]2O)[C@](C)(OC)C[C@@H](C)C(=O)[C@H](C)[C@H]2N(CCCCn3cnc(-c4cccnc4)c3)C(=O)O[C@]12C [Telithromycin] ?
0.0749

For C[C@H]1c2cccc(O)c2C(=O)C2=C(O)[C@]3(O)C(=O)C(C(N)=O)=C(O)[C@@H](N(C)C)[C@@H]3[C@@H](O)[C@@H]21 [Doxycycline] + CC(=O)NC[C@H]1CN(c2ccc(N3CCOCC3)c(F)c2)C(=O)O1 [Linezolid] then?
-0.137

----------
# System: S. aureus Newman
# protocol_text: Bliss interaction score (quartile over a dose matrix) (fitness difference); higher = more antagonism (negative = synergy)
Class Yes: Bliss interaction score at least -0.03. Class No: Bliss interaction score below -0.03.

Would you say N#CC(C#N)=NNc1cccc(Cl)c1 [CCCP] + CC1=C\[C@@H](O)CC(=O)Cc2nc(co2)C(=O)N2CCC=C2C(=O)O[C@H](C(C)C)[C@H](C)/C=C/C(=O)NC\C=C\1 [Virginiamycin M1] shows Bliss interaction score at minimum -0.03?
No

Query CC(=O)Oc1ccccc1C(=O)O [Acetylsalicylicacid] + CO/N=C(\C(=O)N[C@@H]1C(=O)N2C(C(=O)[O-])=C(C[N+]3(C)CCCC3)CS[C@H]12)c1csc(N)n1 [Cefepime] next
Yes

Subsequent entry: O=C(O)c1cn(C2CC2)c2cc(N3CCNCC3)c(F)cc2c1=O [Ciprofloxacin] + O=C1CN(/N=C/c2ccc([N+](=O)[O-])o2)C(=O)N1 [Nitrofurantoin]
No

Please do the same for COc1cccc2c1C(=O)c1c(O)c3c(c(O)c1C2=O)C[C@@](O)(C(=O)CO)C[C@@H]3O[C@H]1C[C@H](N)[C@H](O)[C@H](C)O1 [Doxorubicin] + Clc1ccc(COC(Cn2ccnc2)c2ccc(Cl)cc2Cl)c(Cl)c1 [Miconazole] as well.
No

Same lookup for CO/N=C(\C(=O)N[C@@H]1C(=O)N2C(C(=O)O)=C(COC(N)=O)CS[C@H]12)c1ccco1 [Cefuroxime] + CC1=C\[C@@H](O)CC(=O)Cc2nc(co2)C(=O)N2CCC=C2C(=O)O[C@H](C(C)C)[C@H](C)/C=C/C(=O)NC\C=C\1 [Virginiamycin M1] , please.
No

For N#CC(C#N)=NNc1cccc(Cl)c1 [CCCP] + CO[C@@]12[C@H](COC(N)=O)C3=C(C(=O)C(C)=C(N)C3=O)N1C[C@@H]1N[C@@H]12 [MitomycinC] then?
No

// next record CC(=O)Oc1ccccc1C(=O)O [Acetylsalicylicacid] + O=C(O)[C@H]1/C(=C/CO)O[C@@H]2CC(=O)N21 [Clavulanic]
Yes

Here is the next molecule: CN(C)[C@@H]1C(O)=C(C(N)=O)C(=O)[C@@]2(O)C(O)=C3C(=O)c4c(O)ccc(Cl)c4[C@@](C)(O)[C@H]3C[C@@H]12 [Clortetracycline] + N[C@@H]1CONC1=O [CycloserineD]
Yes

Would you kindly repeat that for CC(=O)Oc1ccccc1C(=O)O [Acetylsalicylicacid] + CN(C)C(=O)C(CCN1CCC(O)(c2ccc(Cl)cc2)CC1)(c1ccccc1)c1ccccc1 [Loperamide] ?
No

Can you check CO/N=C(\C(=O)N[C@@H]1C(=O)N2C(C(=O)O)=C(COC(N)=O)CS[C@H]12)c1ccco1 [Cefuroxime] + C[C@H]1c2cccc(O)c2C(=O)C2=C(O)[C@]3(O)C(=O)C(C(N)=O)=C(O)[C@@H](N(C)C)[C@@H]3[C@@H](O)[C@@H]21 [Doxycycline] next?
No

Next entry: N#CC(C#N)=NNc1cccc(Cl)c1 [CCCP] + CC[C@H]1OC(=O)[C@H](C)[C@@H](O[C@H]2C[C@@](C)(OC)[C@@H](O)[C@H](C)O2)[C@H](C)[C@@H](O[C@@H]2O[C@H](C)C[C@H](N(C)C)[C@H]2O)[C@](C)(OC)C[C@@H](C)C(=O)[C@H](C)[C@@H](O)[C@]1(C)O [Clarithromycin]
Yes

Same thing, different molecule: O=C(O)c1cn(C2CC2)c2cc(N3CCNCC3)c(F)cc2c1=O [Ciprofloxacin] + CC[C@H]1OC(=O)[C@H](C)[C@@H](O[C@H]2C[C@@](C)(OC)[C@@H](O)[C@H](C)O2)[C@H](C)[C@@H](O[C@@H]2O[C@H](C)C[C@H](N(C)C)[C@H]2O)[C@](C)(O)C[C@@H](C)C(=O)[C@H](C)[C@@H](O)[C@]1(C)O [Erythromycin]
Yes

Param item: CC1(C)S[C@@H]2[C@H](NC(=O)Cc3ccccc3)C(=O)N2[C@H]1C(=O)O [PenicillinG] + CC[C@H]1OC(=O)[C@H](C)C(=O)[C@H](C)[C@@H](O[C@@H]2O[C@H](C)C[C@H](N(C)C)[C@H]2O)[C@](C)(OC)C[C@@H](C)C(=O)[C@H](C)[C@H]2N(CCCCn3cnc(-c4cccnc4)c3)C(=O)O[C@]12C [Telithromycin]
No
